test system: M14 melanoma; assay: NCI tumour cell line growth inhibition, 48 h
PROPERTY_NAME: TGI

O=C1c2cc(Cl)ccc2NC(=NCCCl)C2CSCN12 (stereo unspecified) ... > 100 µM
COC(=O)N1CC2C3C4CC(C(c5ccccc5)=C4c4ccccc4)C3C21 (stereo unspecified) ... 51.9 µM
C=C(Nc1ccc([N+](=O)[O-])cc1[N+](=O)[O-])c1c/c(=N\NC(N)=S)c2ccccc2o1 ... > 100 µM
CCOP(=O)(OCC)C(C#N)Cc1ccco1 (stereo unspecified) ... > 10 µM
Cc1cc(C)c(Cn2cnc3c(Cl)ncnc32)c(C)c1CCl ... > 100 µM

Field: next compound
Task: Quote TGI reported for CC(C)(C)CC(C)(C)NCc1cc(C(C)(C)C)cc(CNC(C)(C)CC(C)(C)C)c1O please.
Output: 4.16 µM
